A collection of binders and their measured rel. EC50 (EC50, Amatuximab/EC50, scFv)
# TARGET OR SYSTEM: T1, plasma-membranous human MSLN on cell lines (H226, HPAC, H292, OVCAR-3, MeT-5A) (human, UniProt Q13421 296-598)
# T1 construct: whole, on cells; also called human MSLN on H226 cells; mesothelin on target cells
# PROCEDURE SUMMARY: cELISA on H226 cells, HRP-Protein L
Report only the number, with the unit ratio understood.

Here's what some known entries look like.
binder="anti-MSLN scFv PRO1922 (scFv, also called 54-21-H03-sc01) scFv: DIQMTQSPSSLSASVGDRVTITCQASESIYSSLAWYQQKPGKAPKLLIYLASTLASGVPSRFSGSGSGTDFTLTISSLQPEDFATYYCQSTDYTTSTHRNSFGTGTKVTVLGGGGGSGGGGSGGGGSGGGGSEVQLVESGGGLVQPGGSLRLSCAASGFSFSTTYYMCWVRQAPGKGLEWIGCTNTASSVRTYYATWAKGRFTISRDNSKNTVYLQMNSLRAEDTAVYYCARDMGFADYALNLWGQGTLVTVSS" result_type="rel. EC50 (EC50, Amatuximab/EC50, scFv)" unit_of_measure=ratio result_number=0.52
binder="anti-MSLN scFv PRO1925 (scFv, also called 54-32-A07-sc02) scFv: ALQMTQSPSSLSASVGDRVTITCQASQSISNYLAWYQQKPGKPPKFLIYDASDLASGVSSRFSGSGSGTDFTLTISSLQPEDFATYYCQQVYDSNNVENVFGTGTKVTVLGGGGGSGGGGSGGGGSGGGGSQSQLVESGGGLVQPGGSLRLSCAVSGFSLSSYAMGWVRQAPGKGLEYIGYISKIGTTYYASWAKGRFTISKDNSKNTVYLQMNSLRAEDTAVYFCARGSSSGGYLDDGFDPWGQGTLVTVSS" result_type="rel. EC50 (EC50, Amatuximab/EC50, scFv)" unit_of_measure=ratio result_number=0.11
binder="anti-MSLN scFv PRO2306 (scFv, also called 54-32-A07-sc06; PRO1925-S14R-T87R-T22K) scFv: ALQMTQSPSSLSARVGDRVTIKCQASQSISNYLAWYQQKPGKPPKFLIYDASDLASGVPSRFSGSGSGRDFTLTISSLQPEDFATYYCQQVYDSNNVENVFGTGTKVTVLGGGGGSGGGGSGGGGSGGGGSQSQLVESGGGLVQPGGSLRLSCAVSGFSLSSYAMGWVRQAPGKGLEYIGYISKIGTTYYASWAKGRFTISKDNSKNTVYLQMNSLRAEDTAVYFCARGSSSGGYLDDGFDPWGQGTLVTVSS" result_type="rel. EC50 (EC50, Amatuximab/EC50, scFv)" unit_of_measure=ratio result_number=0.026

Lookup: Could you tell me which rel. EC50 (EC50, Amatuximab/EC50, scFv) is on file for anti-MSLN scFv PRO2309 (scFv, VL/VH interdomain disulfide variant; also called 54-32-A07-sc09; PRO1925-S14R-T87R-T22K-DIS) scFv: ALQMTQSPSSLSARVGDRVTIKCQASQSISNYLAWYQQKPGKPPKFLIYDASDLASGVPSRFSGSGSGRDFTLTISSLQPEDFATYYCQQVYDSNNVENVFGCGTKVTVLGGGGGSGGGGSGGGGSGGGGSQSQLVESGGGLVQPGGSLRLSCAVSGFSLSSYAMGWVRQAPGKCLEYIGYISKIGTTYYASWAKGRFTISKDNSKNTVYLQMNSLRAEDTAVYFCARGSSSGGYLDDGFDPWGQGTLVTVSS ?
Found: 0.07
